Data provenance: PubChem BioAssay (NCI)

assay: NCI Yeast Anticancer Drug Screen. Data for the sgs1 mgt1 strain (AID 161);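 note: 0% = growth of cultures given vehicle only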; conditions: S. cerevisiae sgs1 mgt1 strain, at 50.0 µM, hits give high values
The panel holds about 79,000 compounds, 15% with a hit somewhere; the sample as a whole holds those more often.
growth inhibition reference
Express the result in % but write the number alone.

Example results:
NS(=O)(=O)c1ccc2cc(S(N)(=O)=O)ccc2c1: 22.4
CCOC(=O)C(=O)Nc1cccc(NC(=O)C(=O)OCC)n1: -19.1

Please give the measured growth inhibition for this compound: CC1(C)CN(CCC#N)C(c2ccc([N+](=O)[O-])cc2)O1 (stereo not drawn) 8.1

Data request, read-out growth inhibition, for Cc1cc(N(CCC#N)CCC#N)ccc1/C=C(\NC(=O)/C=C/c1ccccc1)NC(=O)Nc1ccc(Cl)cc1 -17.9

Bench note: what growth inhibition did CC1=C(C#N)C(=N)OC1(C)C1CC(=O)C=CC1=O (stereo not drawn) show? 7.9

Request the reported growth inhibition associated with CC(C)(C)C1=Cc2cc3cc(C(C)(C)C)[nH]c(=O)c3cc2S(=O)(=O)N1 -14.4

Give the measured growth inhibition of O=C(CN1CCN(Cc2ccccc2)CC1)N1CCCn2c1nc1ccccc1c2=O . -7.9

Would you kindly share the measured growth inhibition for CCCCC(C(O)c1ccc(C(C)C)cc1)N(CC)CC (stereo not drawn) ? 53.9

* * *

assay: NCI Yeast Anticancer Drug Screen. Data for the sgs1 mgt1 strain (AID 161);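 note: 0% = growth of cultures given vehicle only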; details: S. cerevisiae sgs1 mgt1 strain, at 50.0 µM, hits give high values
About 79,000 compounds went through this panel and 15% of them were active in at least one assay; those are over-represented in the sample as a whole.
experimentalReadout: growth inhibition (%)
Express it in %; write the number only.

Request the reported growth inhibition associated with NC(CCc1ccc2c(c1)OCO2)C(=O)O (centres undefined) -3.55

Entry under review: Nc1nc(SCC(=O)c2ccc(F)cc2)sc1C(=O)c1ccc(F)cc1 . Reported growth inhibition? 1.4

Endpoint output: growth inhibition of Cc1oc2ccccc2c(=O)c1CO . Value? 2

Need growth inhibition, item O=c1[nH]c2ccccc2c2ccc(Br)cc12 -2.65

Would you mind telling me what growth inhibition value was observed for O=Cc1ccnc2ccccc12 ? 6.25

* * *

assay: NCI Yeast Anticancer Drug Screen. Data for the mlh1 rad18 strain (AID 175); conditions: S. cerevisiae mlh1 rad18 strain growth inhibition; at 50.0 µM; hits give high values
About 79,000 compounds went through this panel and 15% of them were active in at least one assay; those are over-represented in the sample as a whole.
experimentalReadout: growth inhibition (%)
Write down the numeric answer in % and omit the unit.

Before answering, review these 8 worked examples.
[O-][n+]1onc2c1CCC(=N\O)/C2=N/Nc1ccccc1: 11.3
COc1ccc(C(=O)/C=C/C(C)=C/C=N/N(C)c2ccccc2)cc1: 17.8
COc1cccc2c1[C@]1(O)C(O)CCCC21 (stereo partly specified): -35.7
CC/C(=C/CO)c1ccccc1: 36.4
CC(=O)Oc1cccc(OC(C)=O)c1: 34.9
CC1C2c3ccccc3C(c3ccccc32)C1CN1C(CCO)COC1c1ccccc1 (stereo unspecified): 7.6
COc1c(-c2ccccc2)c(=O)n2c3cc(C)c(C)cc3n(C)c2c1C#N: -2.85
COc1cc(Nc2nc3cc(C(F)(F)F)ccc3nc2-c2ccccc2)cc(OC)c1OC: -23.9

Consider the compound shown here: CCNC(=O)CCN(C(=O)O)S(=O)(=O)c1ccc(NC(=O)c2ccccc2)cc1 What is its recorded growth inhibition? -13.9

# lookup: growth inhibition of NC(C(=O)O)C(C(F)(F)F)C(F)(F)F (stereo unspecified) 6.5

Give its growth inhibition value. Item: CCC1=CCC(P(=O)(c2ccccc2)c2ccccc2)CC1C (stereo unspecified) -19.8

What does the data say about its growth inhibition? Entry: CC(C)(C)c1cc(C#N)cc(Br)c1O 98.7

Suppose we examine the compound CC(NC(=O)CNC(=O)CN)C(N)=O (stereo unspecified) ; what growth inhibition value has been reported? -17.2

So what does the record say about growth inhibition for O=C(CI)Nc1ccc(Cl)c(Cl)c1 ? 99.7

Could you share which growth inhibition value was measured for CCOc1ccc(N=Nc2c(C)nc(N)nc2-c2ccccc2)cc1 ? 24.4

Record request: growth inhibition value, item Cn1c(-c2ccc3c(c2)OCO3)cc(=O)c2ccccc21 0.6

Entry under review: CCCCC1(CCBr)C(=O)NC(=Nc2ccccc2)NC1=O (stereo unspecified) . Reported growth inhibition? -13.9

Sample N#CCCN1CCCSC1=S — what was its growth inhibition? 1.7

May I ask what growth inhibition has been recorded for CSc1nc(N)n2nc(C)cc2n1 ? -3.8

What value of growth inhibition has been recorded for this entry: CN(CCN1CCOCC1)C(c1ccccc1)c1ccccc1 67.4

Which growth inhibition is reported for this compound? CN(C)CCCNC(=O)/C=C\C(=O)O -6.15

Dear colleague, I am looking for the recorded growth inhibition of the following compound: O=C(c1cccc(C(F)(F)F)c1)c1ccccc1Cc1ccccc1 42

* * *

test: NCI Yeast Anticancer Drug Screen. Data for the sgs1 mgt1 strain (AID 161);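 note: 0% = growth of cultures given vehicle only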; details: S. cerevisiae sgs1 mgt1 strain, at 50.0 µM, hits give high values
Compounds without any hit were thinned out: in the full panel of roughly 79,000, 15% have a hit.
experimentalReadout: growth inhibition (%)
Give just the number in %; leave the unit off.

O=c1[nH]nc(-c2ccccc2)n1-c1ccncc1: -6.45
COC(=O)Cc1cccc2c(=O)c(S(=O)(=O)NC(=O)Nc3ccc(Cl)cc3)c(-c3ccccc3)oc12: 31.6
O=[N+]([O-])c1ccc(/C([O-])=C(\C(=S)Nc2ccccc2Cl)[n+]2ccccc2)cc1: -6.95

Please give the measured growth inhibition for this compound: CCCc1nc2ccccc2c(=O)n1/N=C/c1ccc(Cl)cc1 -0.4

For O=c1[nH]cnc2c1ncn2C1CCC(CO)O1 (stereo unspecified) , what is its reported growth inhibition? 11.3

Any idea what its growth inhibition is? The compound is O=C1S/C(=C2\C(=O)N(CN3CCCCC3)c3ccccc32)C(=O)N1CN1CCCCC1 -3.85

* * *

Assay: NCI Yeast Anticancer Drug Screen. Data for the mlh1 rad18 strain (AID 175)
Details: S. cerevisiae mlh1 rad18 strain growth inhibition; at 50.0 µM; hits give high values
Experimental: Growth inhibition of yeast strains with defined genetic alterations is measured as a screen for potential anti-cancer activity. Selected strains with alterations in DNA damage repair or cell cycle control were exposed to compounds and growth inhibition was measured relative to vehicle treated controls. The strain used in this assay is mlh1 rad18
The panel holds about 79,000 compounds, 15% with a hit somewhere; the sample as a whole holds those more often.
Catalogue of molecules with associated growth inhibition
Give the value, in units of %, as a plain number.

CCc1c(C)[nH]c2c1C(=O)CCC2: 46.9
CCOP(=O)(c1ccccc1)C(C)C (configuration not stated): -0.2
Oc1ccccc1C=Nc1ccc(Cl)cn1: 20.8
NC(N)=NC(CC(=O)O)c1ccccc1 (configuration not stated): 10.2
CCCCNCC1C(O)CCC2CN3CCc4c([nH]c5ccccc45)C3CC21 (configuration not stated): 16.9
CN(C)C(=O)c1ccc([N+](=O)[O-])cc1: -23.4

Let us move to another entry and its growth inhibition.
Could you share which growth inhibition value was measured for COc1cccc(/C=C2\C(=O)N(C(=O)c3ccc(NC(C)=O)cc3)N=C2C)c1 ? -40.1

* * *

assay: NCI Yeast Anticancer Drug Screen. Data for the rad50 strain (AID 155);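 note: 0% = growth of vehicle-only cultures of the same strain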; conditions: S. cerevisiae rad50 strain growth inhibition; at 50.0 µM; hits give high values
The panel holds about 79,000 compounds, 15% with a hit somewhere; the sample as a whole holds those more often.
experimentalReadout: growth inhibition (%)
# unit: % | format: bare number

What value of measured growth inhibition is listed for Cc1sc2nc3n(c(=O)c2c1C)N=CN(c1ccccc1)C3 ? 3

* * *

assay: NCI Yeast Anticancer Drug Screen. Data for the bub3 strain (AID 167); settings: S. cerevisiae bub3 mutant strain, at 50.0 µM, hits give high values
This is part of a sample that, as a whole, favours compounds with a hit. Of some 79,000 tested, about 15% had one in any assay.
Class (by growth inhibition) -- A: < -20%; B: ≥ -20% and < 10%; C: ≥ 10%

Example results:
Cc1ccc(S(=O)(=O)NNS(=O)(=O)c2ccc(C)cc2)cc1: C
O=C(O)c1nn(-c2ccc(Cl)cc2)c2c1C(=O)c1ccccc1C2=O: C
O=C(/C=C/c1ccccc1)NC1C=Nc2ccc(Cl)cc2NC1=O (configuration not stated): C
CC(C)[C@@H]1CC[C@@H](C)C[C@H]1N: B
COc1cccc(C(N)=O)c1OC: C

Category lookup for the compound O=C(O)CC(NC(=O)OCc1ccccc1)C(=O)OCc1ccccc1 (configuration not stated) A

Kindly state the category for this compound: O=c1cc(-c2ccccc2)[nH]c2ccc(N3CCOCC3)cc12 B

For the record CCCCCCCCCCCCCCCCCCN=C=O , report the class its growth inhibition corresponds to. A

State the class of the compound shown: Cc1c2oc3c(C)ccc(C(=O)NCCN4CCOCC4)c3nc-2c(C(=O)NCCN2CCOCC2)c(N)c1=O C

Each compound maps to one class by growth inhibition. Which class for CCC1(C)CC(C)(C)c2ccc(C)cc21 (configuration not stated) ? B

Which class is correct for the following compound? Cc1ccc(-c2cc(-c3cc(-c4ccc(C)cc4)nc(N)n3)nc(N)n2)cc1 A

The entry to classify is CCC(=O)C(C)C1(C(=O)OC)NC(=S)NC(=O)C1C#N (configuration not stated) ; which class holds it? A
